target: rat lenses aldose reductase (Rattus norvegicus, UniProt P07943); construct: The supernatant fraction of the rat lens homogenate was prepared according to the procedure described in the literature; from tissue; host or cells: lenses of Sprague-Dawley rats; experiment: Rat lens aldose reductase inhibition (NADPH decrease at 340 nm, DL-glyceraldehyde substrate); format: biochemical, Sprague-Dawley rats; details: rat lens enzyme, pH 6.2; unit (μM) printed beside the value
property name: IC50 (µM)
// units = µM; emit number, no label

Item under review: O=C(O)CC1(CC(=O)O)CCCC1 . Reported IC50? 0.46
